# System: HOP-92 NSCLC
# ASSAY_OVERVIEW: NCI tumour cell line growth inhibition, 48 h; in the data active means GI50 below about 0.43 µM; inactive means the rest
Allowed answers: class 1 = active, class 0 = inactive

Completed entries (count: 5):
Q: Record request — test call for COc1ccc2oc(-c3ccc(Cl)cc3)c(N3CCN(C)CC3)c2c1
Result: class 1

Q: Please state the recorded outcome for this molecule: C(#Cc1ccccc1C#Cc1ccccn1)c1ccc(OCCCCCCOc2ccc(C#Cc3ccccc3C#Cc3ccccn3)cc2)cc1
Result: class 0

Q: Check the results log: what was the call for COc1cc2c(cc1C)NC(=O)/C2=C/c1c(C)nc2sc(C)cn12 ?
Result: class 0

Q: Lab log entry: N=C(N)c1ccc(-c2ccc(-c3cc(Cl)cc(Cl)c3)s2)nc1 — outcome as called in the assay?
Result: class 0

Q: Outcome logged for COc1cccc(-c2cc(NCc3ccc4c(c3)OCO4)nc(N)n2)c1 in this assay:
Result: class 0

Others:
Q: What classification did CC(=O)/C=C/c1ccc(N(C)Cc2ccc(C(C)(C)C)cc2)cc1 end up with in this test?
Result: class 0

Q: Status in this test for COc1ccc2c(c1)c(=O)oc1cc(OC/C(=N\O)c3ccc(F)cc3)ccc12 ?
Result: class 0

Q: Status in this test for COc1ccc2cc(C(=O)/C=C/c3ccccc3OC)ccc2c1 ?
Result: class 0

Q: For this molecule, state the assay outcome: C[C@H]1[C@H](C)CC[C@]2(C(=O)O)CC[C@]3(C)C(=CC[C@@H]4[C@@]5(C)CC[C@H](OC(=O)/C=C\c6ccc(O)cc6)C(C)(C)[C@@H]5CC[C@]43C)[C@H]12
Result: class 0

Q: What outcome does the record of this test show for COc1ccc(-c2oncc2-c2cc(OC)c3c(c2)OCO3)cc1 ?
Result: class 0

Q: What was the test verdict on COC(=O)/C(Br)=C/c1c[nH]c2ccc(Br)cc12 ?
Result: class 0

Origin of the recorded values: PubChem BioAssay (NCI)
